Examples of molecules with documented growth inhibition follow.
# assay-info: NCI Yeast Anticancer Drug Screen. Data for the sgs1 mgt1 strain (AID 161);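 further: 0% = growth of cultures given vehicle only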
# protocol-conditions: S. cerevisiae sgs1 mgt1 strain, at 50.0 µM, active compounds read high
About 79,000 compounds went through this panel and 15% of them were active in at least one assay; those are over-represented in the sample as a whole.
Provide the reading as a plain figure in %.

See these solved cases before continuing.
molecule=COc1ccc2nc3ccccc3c(NCCCCCCN(CCCl)CCCl)c2c1 observed_property="growth inhibition" measured_value=80.8
molecule=CNC(=O)Oc1ccc2c(C)cc(=O)oc2c1 observed_property="growth inhibition" measured_value=4.55
molecule=O=C(O)CC(=O)O.[Ti].[c-]1[c-][c-][cH-][c-]1.[c-]1[c-][c-][cH-][c-]1 observed_property="growth inhibition" measured_value=-6.8
molecule="CC1CC(C)(O)CC(C(O)CC2CC(=O)NC(=O)C2)C1=O (stereo not given)" observed_property="growth inhibition" measured_value=48.2
molecule=CC(C)=N.[C-]#[O+].[C-]#[O+].[C-]#[O+].[C-]#[O+].[C-]#[O+].[W] observed_property="growth inhibition" measured_value=-11.8

Ask: Supply growth inhibition value. Item: NC(CNC(=O)CBr)C(=O)O (stereo not given)
Reply: -3.25

Ask: Supply growth inhibition value. Item: `Nc1nc(N)c(-c2ccc(Cl)c(Cl)c2)c(COc2cccc(CNS(=O)(=O)c3cccc(S(=O)(=O)F)c3)c2)n1`
Reply: 66.2

Ask: Supply growth inhibition value. Item: `Cc1cc(OCC2=NCCN2)c(C)c(C)c1Cl`
Reply: 36.1

Ask: Supply growth inhibition value. Item: `C#CCOC(C(=O)OC1CCN(C)CC1)(c1ccccc1)c1ccccc1`
Reply: -6.45

Ask: Supply growth inhibition value. Item: `CC(=O)Nc1ncc2ccccc2c1-c1ccc(NC(=O)CCN(CCCl)CCCl)cc1`
Reply: 12.2

* * *

# assay-info: NCI Yeast Anticancer Drug Screen. Data for the bub3 strain (AID 167)
# protocol-conditions: S. cerevisiae bub3 mutant strain, at 50.0 µM
# Protocol: Growth inhibition of yeast strains with defined genetic alterations is measured as a screen for potential anti-cancer activity. Selected strains with alterations in DNA damage repair or cell cycle control were exposed to compounds and growth inhibition was measured relative to vehicle treated controls. The strain used in this assay is bub3
The panel holds about 79,000 compounds, 15% with a hit somewhere; the sample as a whole holds those more often. Activity calls are given as the source filed them. Rule as the data show it: active = growth inhibition above about 70%; inactive = the rest.
Write down the outcome that applies. Available outcomes: t = active, f = inactive

compound=CC12CC3CC(C1)CC(N=[N+]=[N-])(C3)C2 discrete_label=f
compound=CCOC(=O)N=C=O discrete_label=f
compound=CN(C)c1ccc(C=Cc2ccc([N+](=O)[O-])cc2)cc1.[C-]#[O+].[C-]#[O+].[C-]#[O+].[Cr] discrete_label=f

Ask: Returns: the outcome recorded for COc1ccc2c3c1OC1C4(OC)CCC5(c6c(O)ccc(O)c64)C(C2)N(C)CCC315 (stereo not drawn) in this assay.
Reply: f

Ask: Returns: the outcome recorded for COC1OCCC[CH]1[Hg][Cl] (stereo not drawn) in this assay.
Reply: t

Ask: Returns: the outcome recorded for `CCCCN(CCCC)CC(=O)c1ccc(Br)cc1` in this assay.
Reply: f

Ask: Returns: the outcome recorded for `Oc1c(Cl)c(Cl)c(O)c(Cl)c1Cl` in this assay.
Reply: t

Ask: Returns: the outcome recorded for `OP(=S)(OCc1ccccc1)OCc1ccccc1` in this assay.
Reply: f

Ask: Returns: the outcome recorded for `COc1ccc(/C=C\[N+](=O)[O-])cc1OC` in this assay.
Reply: t

* * *

# assay-info: NCI Yeast Anticancer Drug Screen. Data for the mec2-1 strain (AID 157)
# protocol-conditions: S. cerevisiae mec2-1 strain, at 50.0 µM
About 79,000 compounds went through this panel and 15% of them were active in at least one assay; those are over-represented in the sample as a whole. The source made the active and inactive calls. Rule as the data show it: active = growth inhibition above about 70%; inactive = the rest.
Write down the outcome that applies. Available outcomes: 1.0 for active, 0.0 for inactive

The examples below pair each entry with its known result.
compound=CCOC(=O)C(C)(C)C(OP(=S)(OCC)OCC)=C(C)C discrete_label=0.0
compound=CCC1(CCNC(=O)CNC(C)=O)C(=O)NC(=O)NC1=O discrete_label=0.0
compound=O=[As](O)(O)c1cc(N=Nc2ccc(-c3ccc(N=Nc4cc([As](=O)(O)O)c(O)cc4O)cc3)cc2)c(O)cc1O discrete_label=0.0
compound=COC(=O)C[CH2][Sn]([CH2]CC(=O)OC)([c]1ccccc1)[c]1ccccc1 discrete_label=0.0
compound=COC(=O)C1=C(C)N2[C@H](C(=O)O)CO[C@@]2(C)[C@H](C(=O)OC)[C@H]1c1cccc([N+](=O)[O-])c1 discrete_label=0.0

Ask: Returns: the outcome recorded for `C#CCC1(OC(N)=O)CCCCC1` in this assay.
Reply: 0.0

Ask: Returns: the outcome recorded for `O=NNc1ncc(Cl)cc1Cl` in this assay.
Reply: 0.0

Ask: Returns: the outcome recorded for CCN1C(C)N1P(=S)(OC1CC(C)(C)N(O)C(C)(C)C1)OC1CC(C)(C)N(O)C(C)(C)C1 (stereo unspecified) in this assay.
Reply: 1.0

Ask: Returns: the outcome recorded for `CCOC(CNC(=O)c1ccc(S(=O)(=O)F)cc1)OCC` in this assay.
Reply: 0.0

Ask: Returns: the outcome recorded for `O=C1CCC(=O)N1[N+](=O)[O-]` in this assay.
Reply: 0.0

Ask: Returns: the outcome recorded for `O=P(Cc1ccccc1)(Oc1ccccc1)Oc1ccccc1` in this assay.
Reply: 0.0

Ask: Returns: the outcome recorded for `C1CCNCC1.O=C([CH-]C(=O)C(F)(F)F)c1ccc2c(c1)C(=O)c1ccccc1-2.O=C([CH-]C(=O)C(F)(F)F)c1ccc2c(c1)C(=O)c1ccccc1-2.O=C([CH-]C(=O)C(F)(F)F)c1ccc2c(c1)C(=O)c1ccccc1-2.O=C([CH-]C(=O)C(F)(F)F)c1ccc2c(c1)C(=O)c1ccccc1-2.[Eu+3]` in this assay.
Reply: 0.0

Ask: Returns: the outcome recorded for `CCn1/c(=N\N=O)sc2ccccc21` in this assay.
Reply: 0.0

Ask: Returns: the outcome recorded for `CCCN=Cc1ccccc1O.CCCN=Cc1ccccc1O.[Ni]` in this assay.
Reply: 0.0

Ask: Returns: the outcome recorded for `C[CH2][Sn]([Cl])([CH2]C)[CH2]C` in this assay.
Reply: 1.0

Ask: Returns: the outcome recorded for `[CH3][Sn]([CH3])([Br])[Br].c1ccc(-c2nnc(-c3ccccn3)nc2-c2ccccc2)cc1` in this assay.
Reply: 0.0

Ask: Returns: the outcome recorded for C1OCN2CSCC12 (stereo unspecified) in this assay.
Reply: 0.0

Ask: Returns: the outcome recorded for CN1C(=O)N(C)C(O)C(Cl)(Br)C1=O (stereo unspecified) in this assay.
Reply: 0.0

Ask: Returns: the outcome recorded for CCCC[As](CCCC)SC1OC(COC(C)=O)C(OC(C)=O)C(OC(C)=O)C1OC(C)=O (stereo unspecified) in this assay.
Reply: 1.0

Ask: Returns: the outcome recorded for NNc1cccc2c1CCC(N)C2 (stereo unspecified) in this assay.
Reply: 0.0

Ask: Returns: the outcome recorded for CC(N)Cc1ccc(Cl)cc1 (stereo unspecified) in this assay.
Reply: 0.0

* * *

# assay-info: NCI Yeast Anticancer Drug Screen. Data for the bub3 strain (AID 167)
# protocol-conditions: S. cerevisiae bub3 mutant strain, at 50.0 µM (retest, dose inferred, filed as 5.0), active compounds read high
The panel holds about 79,000 compounds, 15% with a hit somewhere; the sample as a whole holds those more often.
Respond with fulfilled for growth inhibition values of 90% and above, not fulfilled for values below.

The examples below pair each entry with its known result.
compound=O=S(O)O.O=S(O)O.[Co].[NH2-].[NH2-].[NH2-].[NH2-] discrete_label="not fulfilled"
compound=CC/C(=C/c1ccc(OC)cc1OC)[N+](=O)[O-] discrete_label=fulfilled
compound=N#C[S-].[La+3].c1cnc2c(c1)ccc1cccnc12.c1cnc2c(c1)ccc1cccnc12.c1cnc2c(c1)ccc1cccnc12 discrete_label=fulfilled
compound="CCC(C)c1cnc(CC(C)C)c(=O)n1O (stereo not given)" discrete_label=fulfilled
compound="CCC(=O)C(CCN1CCC(N2C(=O)C(CCC#N)c3ccccc32)CC1)(c1ccccc1)c1ccccc1 (stereo not given)" discrete_label="not fulfilled"

Ask: Check the entry `COc1ccc(/C=C\[N+](=O)[O-])cc1OC` : does growth inhibition equal or exceed 90%?
Reply: fulfilled

Ask: Check the entry `S=c1sc(-c2ccccc2)c[se]1` : does growth inhibition equal or exceed 90%?
Reply: not fulfilled

Ask: Check the entry `C[CH2][Hg]` : does growth inhibition equal or exceed 90%?
Reply: fulfilled

Ask: Check the entry `O=C(N/N=C/c1cc(Br)cc(Br)c1[O-])c1ccccc1O.O=C(N/N=C/c1cc(Br)cc(Br)c1[O-])c1ccccc1O.[Zn+2]` : does growth inhibition equal or exceed 90%?
Reply: fulfilled

Ask: Check the entry O=c1oc2ccccc2c(O)c1C(C/C(CCN1CCCC1)=N/O)c1ccccc1 (stereo not given) : does growth inhibition equal or exceed 90%?
Reply: not fulfilled

Ask: Check the entry `CCCCCCCCCC(=O)[O][Hg][c]1ccccc1` : does growth inhibition equal or exceed 90%?
Reply: fulfilled

Ask: Check the entry CN(C)C(=O)OC1C(=O)N(C)c2ccc(Cl)cc2C2(c3ccccc3)N1C2(Cl)Cl (stereo not given) : does growth inhibition equal or exceed 90%?
Reply: not fulfilled
